TGT: HLA-A*02:01 (Homo sapiens, UniProt P04439, D140Y/D185E/D98H/E176V/E277Q/G131W/G231S/I119V/I121R/I166T/I218V/L300P/L318F/N151K/N90K/P208A/P217A/Q86G/Q94H/R138H/R169H/T345S)
EXPERIMENT_NOTES: MHC binding assay: UV-ligand exchange with beta2m ELISA (peptide exchange yield)
APPLIED_CONDITIONS: binding to HLA-A*02:01
Description: Candidate peptides for T cell based therapies according to the present invention were further tested for their MHC binding capacity (affinity). The individual peptide-MHC complexes were produced by UV-ligand exchange, where a UV-sensitive peptide is cleaved upon UV-irradiation, and exchanged with the peptide of interest as analyzed. Only peptide candidates that can effectively bind and stabilize the peptide-receptive MHC molecules prevent dissociation of the MHC complexes. […]
MEASUREMENT_LABEL: Peptide exchange (MHC class I binding score, peptide exchange yield)

Some entries whose results are on file:
• 285 (QLLHVGVTV; listed as Homo sapiens) [compound 285] = “+++” (≥50 = +++)
• 508 (ILAQEQLVVGV; listed as Homo sapiens) [compound 508] = “+++” (≥50 = +++)
• 119 (FLYIGDIVSL; listed as Homo sapiens) [compound 119] = “++++” (≥75% = ++++)
• 21 (VLDELDMEL; listed as Homo sapiens) [compound 21] = “++” (≥20% = ++)
• 139 (SVMEVNSGIYRV; listed as Homo sapiens) [compound 139] = “+++” (≥50 = +++)
• 167 (KVLEVTEEFGV; listed as Homo sapiens) [compound 167] = “+++” (≥50 = +++)
• 106 (LLYDAVHIVSV; listed as Homo sapiens) [compound 106] = “+++” (≥50 = +++)
• 454 (KLPPPPPQA; listed as Homo sapiens) [compound 454] = “+++” (≥50 = +++)
• 245 (SMIDDLLGV; listed as Homo sapiens) [compound 245] = “+++” (≥50 = +++)
• 499 (KIFDIDEAEEGV; listed as Homo sapiens) [compound 499] = “++” (≥20% = ++)

Count: 5. Required value per item: Peptide exchange (MHC class I binding score, peptide exchange yield).
1. 104 (STMEQNFLL; listed as Homo sapiens) [compound 104]
2. 141 (YLDFSNNRL; listed as Homo sapiens) [compound 141]
3. 80 (FLYDNLVESL; listed as Homo sapiens) [compound 80]
4. 233 (VLSETLYEL; listed as Homo sapiens) [compound 233]
5. 302 (ALLQEGEVYSA; listed as Homo sapiens) [compound 302]

1: “++++” (≥75% = ++++); 2: “++” (≥20% = ++); 3: “++” (≥20% = ++); 4: “++” (≥20% = ++); 5: “+++” (≥50 = +++)

Count: 6. Required value per item: Peptide exchange (MHC class I binding score, peptide exchange yield).
1. 442 (GLLGGGGVLGV; listed as Homo sapiens) [compound 442]
2. 343 (SLLEVNEESTV; listed as Homo sapiens) [compound 343]
3. 188 (GLFPVTPEAV; listed as Homo sapiens) [compound 188]
4. 190 (FLSSLTETI; listed as Homo sapiens) [compound 190]
5. 546 (VMIAGKVAVV; listed as Homo sapiens) [compound 546]
6. 381 (FIDEAYVEV; listed as Homo sapiens) [compound 381]

“+++” (≥50 = +++)
“+++” (≥50 = +++)
“+++” (≥50 = +++)
“+++” (≥50 = +++)
“+++” (≥50 = +++)
“++” (≥20% = ++)

Count: 4. Required value per item: Peptide exchange (MHC class I binding score, peptide exchange yield).
1. 361 (ALYELEGTTV; listed as Homo sapiens) [compound 361]
2. 339 (GLWEIENNPTVKA; listed as Homo sapiens) [compound 339]
3. 380 (TLIEDEIATI; listed as Homo sapiens) [compound 380]
4. 113 (GLLPTPLFGV; listed as Homo sapiens) [compound 113]

1: “+++” (≥50 = +++); 2: “++++” (≥75% = ++++); 3: “++” (≥20% = ++); 4: “+++” (≥50 = +++)

* * *

TGT: HLA-A*02:01 (Homo sapiens, UniProt P04439, D140Y/D185E/D98H/E176V/E277Q/G131W/G231S/I119V/I121R/I166T/I218V/L300P/L318F/N151K/N90K/P208A/P217A/Q86G/Q94H/R138H/R169H/T345S)
EXPERIMENT_NOTES: MHC binding assay: UV-ligand exchange with beta2m ELISA (peptide exchange yield)
APPLIED_CONDITIONS: binding to HLA-A*02:01
MEASUREMENT_LABEL: Peptide exchange (MHC class I binding score, peptide exchange yield)

Some entries whose results are on file:
- 46 (ILTEENIHL; listed as Homo sapiens) [compound 46]: “+++” (≥50 = +++)
- 173 (LLDSASAGLYL; listed as Homo sapiens) [compound 173]: “+++” (≥50 = +++)
- 226 (MLYVVPIYL; listed as Homo sapiens) [compound 226]: “++” (≥20% = ++)
- 480 (ALLEDSCHYL; listed as Homo sapiens) [compound 480]: “+++” (≥50 = +++)
- 253 (GLDAATATV; listed as Homo sapiens) [compound 253]: “++” (≥20% = ++)

Count: 2. Required value per item: Peptide exchange (MHC class I binding score, peptide exchange yield).
1. 252 (LLIGTDVSL; listed as Homo sapiens) [compound 252]
2. 69 (FQLDPSSGVLVTV; listed as Homo sapiens) [compound 69]

“+++” (≥50 = +++)
“+++” (≥50 = +++)

Please give the measured Peptide exchange (MHC class I binding score, peptide exchange yield) for this substance: 255 (VLASYNLTV; listed as Homo sapiens) [compound 255]
“+++” (≥50 = +++)

* * *

TGT: HLA-A*02:01 (Homo sapiens, UniProt P04439, D140Y/D185E/D98H/E176V/E277Q/G131W/G231S/I119V/I121R/I166T/I218V/L300P/L318F/N151K/N90K/P208A/P217A/Q86G/Q94H/R138H/R169H/T345S)
EXPERIMENT_NOTES: MHC binding assay: UV-ligand exchange with beta2m ELISA (peptide exchange yield)
APPLIED_CONDITIONS: binding to HLA-A*02:01
MEASUREMENT_LABEL: Peptide exchange (MHC class I binding score, peptide exchange yield)

* 584 (ALAEVAAMENV; listed as Homo sapiens) [compound 584] | “+++” (≥50 = +++)
* 485 (NVPDSFNEV; listed as Homo sapiens) [compound 485] | “+++” (≥50 = +++)
* 221 (ALYEEGLLL; listed as Homo sapiens) [compound 221] | “++” (≥20% = ++)
* 548 (ALWENPESGEL; listed as Homo sapiens) [compound 548] | “++” (≥20% = ++)
* 433 (AMLNEPWAV; listed as Homo sapiens) [compound 433] | “+++” (≥50 = +++)

Count: 3. Required value per item: Peptide exchange (MHC class I binding score, peptide exchange yield).
1. 265 (LLFGGTKTV; listed as Homo sapiens) [compound 265]
2. 98 (LIIDQADIYL; listed as Homo sapiens) [compound 98]
3. 497 (GLLEKLTAI; listed as Homo sapiens) [compound 497]

“++” (≥20% = ++)
“+++” (≥50 = +++)
“+++” (≥50 = +++)

* * *

TGT: HLA-A*02:01 (Homo sapiens, UniProt P04439, D140Y/D185E/D98H/E176V/E277Q/G131W/G231S/I119V/I121R/I166T/I218V/L300P/L318F/N151K/N90K/P208A/P217A/Q86G/Q94H/R138H/R169H/T345S)
EXPERIMENT_NOTES: MHC binding assay: UV-ligand exchange with beta2m ELISA (peptide exchange yield)
APPLIED_CONDITIONS: binding to HLA-A*02:01
MEASUREMENT_LABEL: Peptide exchange (MHC class I binding score, peptide exchange yield)

• 76 (ILIDSIYKV; listed as Homo sapiens) [compound 76] = “+++” (≥50 = +++)
• 144 (YIMEPSIFNTL; listed as Homo sapiens) [compound 144] = “+++” (≥50 = +++)
• 123 (NLWDLTDASVV; listed as Homo sapiens) [compound 123] = “+++” (≥50 = +++)

* * *

TGT: HLA-A*02:01 (Homo sapiens, UniProt P04439, D140Y/D185E/D98H/E176V/E277Q/G131W/G231S/I119V/I121R/I166T/I218V/L300P/L318F/N151K/N90K/P208A/P217A/Q86G/Q94H/R138H/R169H/T345S)
EXPERIMENT_NOTES: MHC binding assay: UV-ligand exchange with beta2m ELISA (peptide exchange yield)
APPLIED_CONDITIONS: binding to HLA-A*02:01
Description: Candidate peptides for T cell based therapies according to the present invention were further tested for their MHC binding capacity (affinity). The individual peptide-MHC complexes were produced by UV-ligand exchange, where a UV-sensitive peptide is cleaved upon UV-irradiation, and exchanged with the peptide of interest as analyzed. Only peptide candidates that can effectively bind and stabilize the peptide-receptive MHC molecules prevent dissociation of the MHC complexes. […]
MEASUREMENT_LABEL: Peptide exchange (MHC class I binding score, peptide exchange yield)

Some entries whose results are on file:
• 202 (ALLDQQGSRWTL; listed as Homo sapiens) [compound 202] = “+++” (≥50 = +++)
• 346 (LLDSKVPSV; listed as Homo sapiens) [compound 346] = “+++” (≥50 = +++)
• 133 (KVLSNIHTV; listed as Homo sapiens) [compound 133] = “++” (≥20% = ++)
• 276 (ALFTFSPLTV; listed as Homo sapiens) [compound 276] = “+++” (≥50 = +++)
• 365 (YVIDQGETDVYV; listed as Homo sapiens) [compound 365] = “+++” (≥50 = +++)

Count: 3. Required value per item: Peptide exchange (MHC class I binding score, peptide exchange yield).
1. 145 (FLATSGTLAGI; listed as Homo sapiens) [compound 145]
2. 204 (KIAENVEEV; listed as Homo sapiens) [compound 204]
3. 284 (ILLSQTTGV; listed as Homo sapiens) [compound 284]

1. “++” (≥20% = ++)
2. “++” (≥20% = ++)
3. “+++” (≥50 = +++)

Value source: patent US10464978B2
